Values compiled from ChEMBL document CHEMBL4411260.

Assay: Cmin in complete freund's adjuvant-induced Lewis rat arthritis model plasma at 30 mg/kg, po qd administered via gavage treated for 7 consecutive days measured after 24 hrs post last dose
Assay type: ADME, organism-based
Settings: read-out: Cmin
value_type: concentration at 24 h (nM)
Kindly answer with a numeric value in nM, unit omitted.

INPUT: Entry Cc1ccc(S(=O)(=O)O)cc1.Cn1cc(Nc2nccc(N3CC4CC[C@H](C3)N4C(=O)[C@@H]3CC3(F)F)n2)cn1 (single isomer, unassigned) has what concentration at 24 h?
OUTPUT: 60

====

Target: Vascular endothelial growth factor receptor 2 (Homo sapiens, UniProt P35968)
Sequence (P35968 whole entry): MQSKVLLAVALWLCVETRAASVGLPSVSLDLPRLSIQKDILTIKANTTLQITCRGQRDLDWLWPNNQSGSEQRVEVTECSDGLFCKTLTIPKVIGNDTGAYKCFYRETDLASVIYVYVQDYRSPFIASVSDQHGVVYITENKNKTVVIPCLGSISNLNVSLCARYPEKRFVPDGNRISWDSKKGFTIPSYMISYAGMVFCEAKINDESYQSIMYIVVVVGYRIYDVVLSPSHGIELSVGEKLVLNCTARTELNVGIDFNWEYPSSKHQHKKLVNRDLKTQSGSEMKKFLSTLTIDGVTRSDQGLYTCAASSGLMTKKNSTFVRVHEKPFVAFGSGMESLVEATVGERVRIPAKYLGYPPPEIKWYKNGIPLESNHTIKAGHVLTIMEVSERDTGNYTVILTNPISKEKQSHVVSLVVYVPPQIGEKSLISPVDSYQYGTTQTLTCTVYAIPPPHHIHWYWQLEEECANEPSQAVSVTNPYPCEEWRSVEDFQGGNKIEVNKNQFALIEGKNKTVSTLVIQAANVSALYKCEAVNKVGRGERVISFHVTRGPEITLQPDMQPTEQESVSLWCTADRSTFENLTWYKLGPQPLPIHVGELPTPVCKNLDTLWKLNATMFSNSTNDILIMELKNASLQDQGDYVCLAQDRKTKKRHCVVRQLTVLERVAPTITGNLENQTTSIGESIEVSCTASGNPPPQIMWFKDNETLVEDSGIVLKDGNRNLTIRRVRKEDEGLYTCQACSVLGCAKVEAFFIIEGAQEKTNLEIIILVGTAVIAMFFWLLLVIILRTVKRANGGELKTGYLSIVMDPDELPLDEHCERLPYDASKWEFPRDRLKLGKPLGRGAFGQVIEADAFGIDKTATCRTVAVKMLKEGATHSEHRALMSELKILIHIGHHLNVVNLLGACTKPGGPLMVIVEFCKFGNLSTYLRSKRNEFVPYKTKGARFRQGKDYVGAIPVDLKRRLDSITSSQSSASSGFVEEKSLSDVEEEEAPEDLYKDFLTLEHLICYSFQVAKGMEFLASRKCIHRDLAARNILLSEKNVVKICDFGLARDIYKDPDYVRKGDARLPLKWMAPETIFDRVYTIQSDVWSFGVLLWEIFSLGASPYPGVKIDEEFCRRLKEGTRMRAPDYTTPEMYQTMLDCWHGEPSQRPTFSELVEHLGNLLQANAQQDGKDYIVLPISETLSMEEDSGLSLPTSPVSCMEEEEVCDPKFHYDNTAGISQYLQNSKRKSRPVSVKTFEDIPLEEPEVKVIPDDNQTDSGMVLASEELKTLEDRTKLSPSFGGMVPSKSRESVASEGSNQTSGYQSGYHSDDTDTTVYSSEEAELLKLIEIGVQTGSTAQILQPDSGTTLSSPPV
Experiment: Inhibition of recombinant human VEGFR2 using Ulight-CAGAGAIETDKEYYTVKD as substrate after 60 mins
value_type: IC50
Please report the result as a number followed by the unit.

INPUT: Entry Cn1cc(Nc2nccc(N3CC4CC[C@H](C3)N4C(=O)[C@@H]3CC3(F)F)n2)cn1 (single isomer, unassigned) : reported IC50 = ?
OUTPUT: 1600 nM

====

Quick record: pIC50, Tyrosine-protein kinase JAK3 (Homo sapiens, UniProt P52333).
pIC50 here: minus log base 10 of the concentration, concentration in moles per litre.

Look over these answered cases.
molecule | observed_result
Cn1cc(Nc2ncc(F)c(N3CC4CC[C@H](C3)N4C(=O)C3CC3)n2)cn1 (single isomer, unassigned) | 5.54
CCNC(=O)c1ncc(Nc2ncc(F)c(N3CC4CC[C@H](C3)N4C(=O)C3CC3)n2)cc1C (single isomer, unassigned) | 5.30

Lab note: next molecule to report on.
INPUT: Look up pIC50: Cn1cc(Nc2nccc(N3CC4CC[C@H](C3)N4C(=O)NCC(F)(F)F)n2)cn1 (single isomer, unassigned)
OUTPUT: 5.16

====

Record type: pIC50 measurement. Applies to: Tyrosine-protein kinase JAK1 (Homo sapiens, UniProt P23458)
# pIC50 is unitless: minus log10 of the molar concentration; print number only

compound | pIC50
Cn1cc(Nc2ncc(F)c(N3CC4CC[C@H](C3)N4C(=O)C3CC3)n2)cn1 (single isomer, unassigned) | 7.12

Turning to the following compound.
INPUT: Need pIC50 of `CCNC(=O)c1ccc(Nc2nccc(N3C[C@@H]4C[C@H]3CN4C(=O)CC#N)n2)cc1` , thanks.
OUTPUT: 5.43

====

Molecular target: Vascular endothelial growth factor receptor 2 (Homo sapiens, UniProt P35968)
Assay: Inhibition of VEGFR2 (unknown origin) by cell based assay
pIC50: −log10 of the molar value.
value_type: pIC50

INPUT: Find the recorded pIC50 belonging to Cn1cc(Nc2nccc(N3CC4CC[C@H](C3)N4C(=O)[C@@H]3CC3(F)F)n2)cn1 (single isomer, unassigned) and report it.
OUTPUT: < 4.52

====

Entries below carry reported IC50 on UniProtKB O60674.
Please respond with the number in µM and leave the unit unwritten.

As a guide, the following entries are already answered.
compound | IC50 / µM
Cn1cc(Nc2nccc(N3CC4CC[C@H](C3)N4C(=O)NCC(F)(F)F)n2)cn1 (single isomer, unassigned) | 0.146
CCNC(=O)c1ncc(Nc2ncc(F)c(N3CC4CC[C@H](C3)N4C(=O)C3CC3)n2)cc1C (single isomer, unassigned) | 0.692
CCNC(=O)c1ccc(Nc2nccc(N3C[C@@H]4CC[C@H]3CN4C(=O)C3CC3)n2)cc1 | 2.78

Next compound, please.
INPUT: Lab request: please report IC50 under test system UniProtKB O60674 for Cn1cc(Nc2ncc(F)c(N3CC4CC[C@H](C3)N4C(=O)C3CC3)n2)cn1 (single isomer, unassigned)
OUTPUT: 0.488

====

Assay: AUC (0 to infinity) in Sprague-Dawley rat at 3 mg/kg, po
Type: ADME, organism-based
Parameters: dose 3 mg/kg, time infinity, route oral
Conditions: in vivo
value_type: AUC(0-inf)

INPUT: Field request: AUC(0-inf) | item: Cc1ccc(S(=O)(=O)O)cc1.Cn1cc(Nc2nccc(N3CC4CC[C@H](C3)N4C(=O)[C@@H]3CC3(F)F)n2)cn1 (single isomer, unassigned)
OUTPUT: 1340 ng·h/mL

====

fIC50 values recorded for Tyrosine-protein kinase JAK2 (Homo sapiens)

compound | fIC50
Cn1cc(Nc2nccc(N3CC4CC[C@H](C3)N4C(=O)NCC#N)n2)cn1 (single isomer, unassigned) | 28 nM
O=C(C1CC1)N1C2CC[C@@H]1CN(c1nc(Nc3cnn(CCO)c3)ncc1F)C2 (single isomer, unassigned) | 10 nM
Cn1cc(Nc2nccc(N3CC4CC[C@H](C3)N4C(=O)NCC(F)(F)F)n2)cn1 (single isomer, unassigned) | 15 nM
Cn1cc(Nc2ncc(F)c(N3CC4CC[C@H](C3)N4C(=O)C3CC3)n2)cn1 (single isomer, unassigned) | 8 nM
CCNC(=O)c1ncc(Nc2ncc(F)c(N3CC4CC[C@H](C3)N4C(=O)C3CC3)n2)cc1C (single isomer, unassigned) | 11 nM
Cn1cc(Nc2nccc(N3CC4CC[C@H](C3)N4C(=O)C3CC3)n2)cn1 (single isomer, unassigned) | 11 nM

With those in mind, consider the next compound.
INPUT: # returns recorded fIC50 (system: Tyrosine-protein kinase JAK2 (Homo sapiens)) for CCNC(=O)N1C2CC[C@@H]1CN(c1ccnc(Nc3cnn(C)c3)n1)C2 (single isomer, unassigned)
Sequence (O60674 whole entry): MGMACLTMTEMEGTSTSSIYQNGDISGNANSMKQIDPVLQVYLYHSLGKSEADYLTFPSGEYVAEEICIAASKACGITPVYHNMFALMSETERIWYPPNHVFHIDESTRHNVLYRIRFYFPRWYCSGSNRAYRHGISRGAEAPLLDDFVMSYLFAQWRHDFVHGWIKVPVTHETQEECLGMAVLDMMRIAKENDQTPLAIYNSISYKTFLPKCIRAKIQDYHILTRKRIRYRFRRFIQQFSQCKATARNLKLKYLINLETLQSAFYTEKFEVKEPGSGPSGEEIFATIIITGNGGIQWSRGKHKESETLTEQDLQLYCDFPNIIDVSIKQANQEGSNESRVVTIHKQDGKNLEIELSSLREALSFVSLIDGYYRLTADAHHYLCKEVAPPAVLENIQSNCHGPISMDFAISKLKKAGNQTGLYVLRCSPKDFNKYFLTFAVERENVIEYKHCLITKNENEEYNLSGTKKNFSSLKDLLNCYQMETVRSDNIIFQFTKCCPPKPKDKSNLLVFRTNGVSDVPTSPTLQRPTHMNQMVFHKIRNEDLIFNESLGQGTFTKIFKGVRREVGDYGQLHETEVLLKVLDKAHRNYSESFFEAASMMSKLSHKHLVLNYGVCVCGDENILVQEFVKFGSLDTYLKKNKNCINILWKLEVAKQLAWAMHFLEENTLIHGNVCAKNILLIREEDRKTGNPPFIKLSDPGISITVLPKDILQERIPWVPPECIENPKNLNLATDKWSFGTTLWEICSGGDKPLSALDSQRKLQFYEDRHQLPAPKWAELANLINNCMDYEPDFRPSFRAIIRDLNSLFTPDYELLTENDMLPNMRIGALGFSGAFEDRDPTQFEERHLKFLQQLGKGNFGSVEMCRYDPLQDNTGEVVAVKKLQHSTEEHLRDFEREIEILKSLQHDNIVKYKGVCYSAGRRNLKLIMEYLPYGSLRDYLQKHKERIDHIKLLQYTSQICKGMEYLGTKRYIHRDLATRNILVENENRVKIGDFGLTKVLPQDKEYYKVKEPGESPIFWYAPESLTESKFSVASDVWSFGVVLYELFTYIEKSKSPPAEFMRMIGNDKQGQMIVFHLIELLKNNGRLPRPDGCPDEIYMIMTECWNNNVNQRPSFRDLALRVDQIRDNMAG
OUTPUT: 14 nM

====

Biological target: Non-receptor tyrosine-protein kinase TYK2 (Homo sapiens)
Sequence (P29597 whole entry): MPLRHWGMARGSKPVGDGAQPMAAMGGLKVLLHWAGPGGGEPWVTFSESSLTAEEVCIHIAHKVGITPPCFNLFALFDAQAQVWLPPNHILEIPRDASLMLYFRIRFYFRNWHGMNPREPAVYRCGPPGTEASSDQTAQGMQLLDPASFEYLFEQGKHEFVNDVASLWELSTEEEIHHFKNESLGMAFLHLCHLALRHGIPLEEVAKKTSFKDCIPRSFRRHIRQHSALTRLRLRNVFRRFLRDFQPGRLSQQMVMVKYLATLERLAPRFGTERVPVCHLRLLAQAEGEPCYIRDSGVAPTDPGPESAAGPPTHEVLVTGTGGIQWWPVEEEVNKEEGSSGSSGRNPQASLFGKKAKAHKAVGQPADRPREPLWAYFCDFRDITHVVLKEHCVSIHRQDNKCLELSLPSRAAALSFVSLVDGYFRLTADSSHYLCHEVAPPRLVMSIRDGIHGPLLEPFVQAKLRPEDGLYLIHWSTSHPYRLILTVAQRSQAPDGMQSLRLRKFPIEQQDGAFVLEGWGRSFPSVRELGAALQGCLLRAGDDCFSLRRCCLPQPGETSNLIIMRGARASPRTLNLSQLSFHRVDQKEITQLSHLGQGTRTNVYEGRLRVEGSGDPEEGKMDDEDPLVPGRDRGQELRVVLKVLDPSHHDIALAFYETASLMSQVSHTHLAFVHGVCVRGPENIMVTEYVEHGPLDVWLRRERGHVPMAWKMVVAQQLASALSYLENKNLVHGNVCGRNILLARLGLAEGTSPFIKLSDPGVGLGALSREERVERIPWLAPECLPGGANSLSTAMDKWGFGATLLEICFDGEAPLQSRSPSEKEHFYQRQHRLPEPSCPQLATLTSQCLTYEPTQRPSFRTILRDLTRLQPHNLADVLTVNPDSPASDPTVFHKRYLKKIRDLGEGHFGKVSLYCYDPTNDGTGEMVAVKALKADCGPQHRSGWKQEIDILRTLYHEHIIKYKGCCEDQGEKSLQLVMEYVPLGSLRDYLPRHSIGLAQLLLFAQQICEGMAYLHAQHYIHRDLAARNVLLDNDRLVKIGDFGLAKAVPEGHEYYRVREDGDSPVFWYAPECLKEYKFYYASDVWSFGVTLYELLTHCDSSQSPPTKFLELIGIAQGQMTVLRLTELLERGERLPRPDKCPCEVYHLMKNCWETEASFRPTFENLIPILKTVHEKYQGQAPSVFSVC
Experiment: Inhibition of human TYK2 using fluorescence labeled peptide as substrate and using ATP at its Km level by microfluidic based mobility shift assay
value_type: IC50 (nM)
Answer format: numeric, nM implied, no suffix.

smiles_structure | assay_target | observed_result
CCNC(=O)c1ccc(Nc2nccc(N3C[C@H]4C[C@@H]3CN4C(=O)CC#N)n2)cc1 | Non-receptor tyrosine-protein kinase TYK2 (Homo sapiens) | 2690
CCNC(=O)c1ccc(Nc2nccc(N3CCN(C(=O)CC#N)CC3)n2)cc1 | Non-receptor tyrosine-protein kinase TYK2 (Homo sapiens) | 368

Please look at the following compound next.
INPUT: Please look up its IC50: `CCNC(=O)c1ccc(Nc2nccc(N3C[C@@H]4C[C@H]3CN4C(=O)CC#N)n2)cc1`
OUTPUT: 23

====

Test: Cmax in complete freund's adjuvant-induced Lewis rat arthritis model plasma at 30 mg/kg, po qd administered via gavage treated for 7 consecutive days measured after 30 mins post last dose
Type: ADME, organism-based
Design: dose 30 mg/kg, route oral
value_type: Cmax (µM)
Numeric answer only, unit µM assumed.

INPUT: Need Cmax of Cc1ccc(S(=O)(=O)O)cc1.Cn1cc(Nc2nccc(N3CC4CC[C@H](C3)N4C(=O)[C@@H]3CC3(F)F)n2)cn1 (single isomer, unassigned) , thanks.
OUTPUT: 23.9

====

Experiment: Fraction unbound in rat plasma
Assay type: ADME, cell-free
value_type: fraction unbound

INPUT: Which fraction unbound is reported for this compound? Cn1cc(Nc2nccc(N3CC4CC[C@H](C3)N4C(=O)[C@@H]3CC3(F)F)n2)cn1 (single isomer, unassigned)
OUTPUT: 0.69

====

Experiment: Plasma clearance in Sprague-Dawley rat at 1 mg/kg, iv or 3 mg/kg, po
Assay type: ADME, organism-based
value_type: clearance (mL/min/kg)
Numbers only here, please. The scale is mL/min/kg.

INPUT: Could you share which clearance value was measured for Cc1ccc(S(=O)(=O)O)cc1.Cn1cc(Nc2nccc(N3CC4CC[C@H](C3)N4C(=O)[C@@H]3CC3(F)F)n2)cn1 (single isomer, unassigned) ?
OUTPUT: 31

====

Target: Tyrosine-protein kinase JAK1 (Homo sapiens)
Sequence (P23458 whole entry): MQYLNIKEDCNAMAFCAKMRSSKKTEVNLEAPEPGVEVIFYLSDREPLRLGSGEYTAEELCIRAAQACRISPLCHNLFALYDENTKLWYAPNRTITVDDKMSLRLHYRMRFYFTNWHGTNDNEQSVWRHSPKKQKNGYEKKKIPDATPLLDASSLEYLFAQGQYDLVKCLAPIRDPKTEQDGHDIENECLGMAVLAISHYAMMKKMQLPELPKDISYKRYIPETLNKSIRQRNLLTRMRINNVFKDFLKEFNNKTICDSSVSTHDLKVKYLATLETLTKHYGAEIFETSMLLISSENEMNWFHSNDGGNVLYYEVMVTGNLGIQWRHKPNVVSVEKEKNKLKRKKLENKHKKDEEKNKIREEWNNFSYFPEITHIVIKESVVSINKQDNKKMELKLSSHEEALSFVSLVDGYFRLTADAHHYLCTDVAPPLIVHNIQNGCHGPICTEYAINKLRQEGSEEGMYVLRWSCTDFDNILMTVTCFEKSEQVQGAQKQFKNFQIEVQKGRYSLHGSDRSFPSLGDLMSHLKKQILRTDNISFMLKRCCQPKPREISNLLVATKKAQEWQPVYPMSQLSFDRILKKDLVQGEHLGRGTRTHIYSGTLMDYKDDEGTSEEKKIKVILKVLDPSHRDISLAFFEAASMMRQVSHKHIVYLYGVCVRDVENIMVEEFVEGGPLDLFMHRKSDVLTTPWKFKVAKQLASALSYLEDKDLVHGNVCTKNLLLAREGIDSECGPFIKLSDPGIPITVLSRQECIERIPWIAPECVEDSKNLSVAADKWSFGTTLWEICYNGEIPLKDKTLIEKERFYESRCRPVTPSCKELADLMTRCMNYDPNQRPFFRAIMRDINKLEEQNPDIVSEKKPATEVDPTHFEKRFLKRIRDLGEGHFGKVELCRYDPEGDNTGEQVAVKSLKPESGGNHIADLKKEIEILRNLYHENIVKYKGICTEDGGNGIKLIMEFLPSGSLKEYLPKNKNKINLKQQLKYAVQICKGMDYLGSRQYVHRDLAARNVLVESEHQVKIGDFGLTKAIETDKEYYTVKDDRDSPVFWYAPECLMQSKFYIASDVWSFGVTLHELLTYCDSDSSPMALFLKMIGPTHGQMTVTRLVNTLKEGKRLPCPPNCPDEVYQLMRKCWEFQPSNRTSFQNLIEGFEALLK
Experiment: Inhibition of human JAK1 using fluorescence labeled peptide as substrate and using ATP at its Km level by microfluidic based mobility shift assay
value_type: pIC50
# pIC50 is unitless: minus log10 of the molar concentration; print number only

smiles_structure | assay_target | value_type | observed_result
CCNC(=O)c1ccc(Nc2nccc(N3C[C@@H]4C[C@H]3CN4C(=O)CC#N)n2)cc1 | Tyrosine-protein kinase JAK1 (Homo sapiens) | pIC50 | 6.45
CCNC(=O)c1ccc(Nc2nccc(N3C[C@H]4C[C@@H]3CN4C(=O)CC#N)n2)cc1 | Tyrosine-protein kinase JAK1 (Homo sapiens) | pIC50 | 5.14

Now consider the entry below.
INPUT: Could you share which pIC50 value was measured for `CCNC(=O)c1ccc(Nc2nccc(N3CCN(C(=O)CC#N)CC3)n2)cc1` ?
OUTPUT: 5.51

====

Test: Cmin in complete freund's adjuvant-induced Lewis rat arthritis model plasma at 3 mg/kg, po qd administered via gavage treated for 7 consecutive days measured after 24 hrs post last dose
Assay type: ADME, organism-based
Settings: read-out: Cmin
value_type: concentration at 24 h (nM)
Please give a number only; it is taken to be in nM.

INPUT: I have this compound here, Cc1ccc(S(=O)(=O)O)cc1.Cn1cc(Nc2nccc(N3CC4CC[C@H](C3)N4C(=O)[C@@H]3CC3(F)F)n2)cn1 (single isomer, unassigned) , and I need its recorded concentration at 24 h.
OUTPUT: 22.1
